So I've got a bunch of molecules here, and I need their pIC50 values.
tested on: Plasmodium falciparum; assay: microbe, parasite or virus in culture; settings: NF54
Description: Antiplasmodial activity against IEF stage of Plasmodium falciparum NF54 assessed as reduction in [3H]hypoxanthine incorporation preincubated for 48 hrs followed by [3H]hypoxanthine addition measured after 24 hrs by liquid scintillation counting method
# pIC50: negative log10 of molar concentration; output just the value

Measured pIC50 of "C[C@@H]1CC[C@H]2[C@@H](C)C(=O)O[C@@H]3O[C@@]4(C)CC[C@@H]1[C@]32OO4" : 8.10

Measured pIC50 of "CC(C)=C[C@H]1[C@@H]2C(C)=CC[C@]34CC[C@H]5C(C)(C)CCC[C@]56C[C@]23[C@@](O)(O6)C(=O)[C@]1(C(C)C)C4=O" : 5.96

Measured pIC50 of "CC1=C2[C@H](O)[C@@H]3C(C)(C)OC4=C(C(C)C)C(=O)[C@]5(CC[C@H]6C(C)(C)CCC[C@]67C[C@]25[C@@]43O7)CC1=O" : 5.12

Measured pIC50 of "CC(C)C1=C2OC(C)(C)[C@H]3C[C@@]45O[C@]4(C)[C@H](O)C[C@@]4(CC[C@H]6C(C)(C)CCC[C@]67C[C@@]45[C@@]23O7)C1=O" : 5.44

Measured pIC50 of "CC1=C2C[C@@H]3C(C)(C)O[C@]45O[C@@]4(C(C)C)C(=O)[C@]4(CC[C@H]6C(C)(C)CCC[C@]67C[C@]24[C@]35O7)CC1=O" : 5.89

Measured pIC50 of "C=CC1=C[C@@H]2[C@H]3C(C)=CO[C@]45O[C@]67CCCC(C)(C)[C@@H]6CC[C@](C1)(C(=O)[C@]3(C(C)C)C4=O)[C@]25C7" : 5.72

Measured pIC50 of "CC1=C2C[C@@H]3C(C)(C)OC4=C(C(C)C)C(=O)[C@]5(CC[C@H]6C(C)(C)CCC[C@]67C[C@]25[C@@]43O7)CC1=O" : 6.22

Measured pIC50 of "CC(=O)[C@@]12C[C@H]3C(C)(C)OC4=C(C(C)C)C(=O)[C@]5(CC[C@H]6C(C)(C)CCC[C@]67C[C@@]51[C@@]43O7)C[C@H]2O" : 5.10

====

tested on: Trypanosoma cruzi; test: Antitrypanosomal activity against Trypanosoma cruzi Tulahuen C4 amastigotes harboring LacZ infected in rat L6 cells after 96 hrs by CPRG/Nonidet reagent based photometric analysis; assay type: functional, organism-based; conditions: Tulahuen C4, L6, 96 h
pIC50: −log10 of the molar value.
Criterion: pIC50 meeting or surpassing 5. Met: true (1). Not met: false (0).

Item "CC1=C2C[C@@H]3C(C)(C)OC4=C(C(C)C)C(=O)[C@]5(CC[C@H]6C(C)(C)CCC[C@]67C[C@]25[C@@]43O7)CC1=O" with pIC50 of 5 or above? true (1)

Item "O=C(Cn1ccnc1[N+](=O)[O-])NCc1ccccc1" with pIC50 of 5 or above? true (1)

Item "CC(C)=C[C@H]1[C@@H]2C(C)=CC[C@]34CC[C@H]5C(C)(C)CCC[C@]56C[C@]23[C@@](O)(O6)C(=O)[C@]1(C(C)C)C4=O" with pIC50 of 5 or above? false (0)

Item "CC1=C2[C@H](O)[C@@H]3C(C)(C)OC4=C(C(C)C)C(=O)[C@]5(CC[C@H]6C(C)(C)CCC[C@]67C[C@]25[C@@]43O7)CC1=O" with pIC50 of 5 or above? true (1)

Item "CC(C)C1=C2OC(C)(C)[C@H]3C[C@@]45O[C@]4(C)[C@H](O)C[C@@]4(CC[C@H]6C(C)(C)CCC[C@]67C[C@@]45[C@@]23O7)C1=O" with pIC50 of 5 or above? false (0)

Item "C=CC1=C[C@@H]2[C@H]3C(C)=CO[C@]45O[C@]67CCCC(C)(C)[C@@H]6CC[C@](C1)(C(=O)[C@]3(C(C)C)C4=O)[C@]25C7" with pIC50 of 5 or above? false (0)

Item "CC(=O)[C@@]12C[C@H]3C(C)(C)OC4=C(C(C)C)C(=O)[C@]5(CC[C@H]6C(C)(C)CCC[C@]67C[C@@]51[C@@]43O7)C[C@H]2O" with pIC50 of 5 or above? false (0)
